protocol summary: Solvent characteristics (hydrophobic / polar / hydrophilic / complex)
Format: physicochemical
readout kind: Solvent characteristics

>>> reading("CCCCCO [1-PENTANOL, 1-Pentanol]")
"Hydrophobic/"
>>> reading("CC(C)O [ISOPROPYL-ALCOHOL, Isopropyl-alcohol]")
"Hydrophobic/"
>>> reading("COC(C)=O [METHYL-ACETATE, Methyl-acetate]")
"Polar"
>>> reading("CC#N [ACETONITRILE, Acetonitrile]")
"Polar"

With those in mind, consider the next compound.
Ask | Recorded Solvent characteristics of CC(C)=O [ACETONE, Acetone] , please.
Reply | Polar
